assay: yeast display, Sf9 membrane polyspecificity reagent, FACS + sequencing; frameworks hold sequencing errors
readoutKind: polyreactivity (PSR sort gate)

sequenceString	reading
QVQLVESGGGLVQAGGSLRLSCAASGITFKAYAMGWYRQAPGKERELVAAINTSGARTYYADSVKGRFTISRDNAKNTVYLQMNSLKPEDTAVYYCNARLHQQEGDYWGQGTQVTVSS	low polyreactivity
QVQLVESGGGLVQAGGSLRLSCAASGSNFVTNAMGWYRQAPGKERELVAAISVSGGSTYYADSVKGRFTFSRDNAKNTVYLQMNSLKPEDTEVYYCAADGFIGCRHIYEYWGQGTQVTVSS	low polyreactivity
QVQLVESGGGLVQAGGSLRLSCAASGSIFAGYAMGWYRQAPGKERELVAAISSSGSRTYYADSVKGRFTISRDNAKNTVYLHMNSLKPEDTAVYYCATQSWVRYGQPEFDYWGQGTQVTVSS	high polyreactivity
QVQLVESGGGLVQAGGSLRISCAASGSTFKIYAMGWYRQAPGKERELVAAITGGGSSTYYADSVKGRFTISRDNSKNTVYLQMNSLKPEDTAVYYCAADLSGADSTGDYYYWGQGTQVTVSS	low polyreactivity
QVQLVETGGGLVQAGGSLRLSCAASGRTFARNAMGWYRQAPGKERELVAAISRRGGNTYYADSVKGRFTISRDNAKNTVYLQMNSLKPEDTAVYYCAVRWPSARIPVKLDYWGQGTQVTVSS	high polyreactivity

---

test: yeast display, Sf9 membrane polyspecificity reagent, FACS + sequencing; frameworks hold sequencing errors
readoutKind: polyreactivity (PSR sort gate)

sequenceString	readoutKind	reading
QVQLVESGGGLVQAGGSLRLSCAASGSIFGDNAMGWYRQAPGKERELVAAITSSGGSTYYADSVKGRFTISRDNAKNTVYLQMNSLKPEDTAVYYCNADFGYGWYLRYDYWGQGTQVTVSS	polyreactivity (PSR sort gate)	high polyreactivity
QVQLVESGGGLVQAGGSLRLSCAASGSTFGGNGMGWYRQAPGKKGSWVAAISWSGGSTYYADSVKGRFTISRDNAKNTVYLQMNSLKPEDTAVYYCAARTVYRGRAYDYWGQGTQVTVSS	polyreactivity (PSR sort gate)	high polyreactivity
QVQLVESGGGLVQAGGSLRLSCAASGNIFDTYVMGWYRQAPGKERELVAAITSDGGTYYADSVKGRFTSSRDNATNPVYLQMNSRQPEDTAVYYCAADTYYYPIHDYWGQGTQVTVSS	polyreactivity (PSR sort gate)	low polyreactivity
QVQLVESGGGLVQAGGSLRLSCAASGFTLGFNAMGWYRQAPGKERELVATISSSGGSTHYADSVKGRFTISRDNAKNTVYLQMNSLKPEDTAVYYCARDDSDRIWLEQSGYWGQGTQVTVSS	polyreactivity (PSR sort gate)	low polyreactivity
QVQLVESGGGLVQAGGSLRLSCAASGSTFTGYTMGWYRQAPGKERELVAAITYRGGSTYYADSVKGRFTISRDNAKITDYLQMNSLIPEDTAVYYCAAVPEYYEYSPYDYWGQGTQVTVSS	polyreactivity (PSR sort gate)	low polyreactivity
QVQLVESGGGLVQAGGSLRLSCAASGTIFYDNAMGWYRQAPAKERELVASIRWSGDSTYYADSVKGRFTISRDNAKNTVYLQMISLKPEDTAVYYCAADPVEPYFTAIAYDYWGQGTQVTVSS	polyreactivity (PSR sort gate)	low polyreactivity
QVQLVESGGGLVQAGGSLRLSCSASGRTFYEYAMGWYIQAPGKERELVAGITSGGSTNYADSVKGRFTISRDNAKNTVYLQMNSLKPEDTAVYYCAATYWGYEYDYWGQGTQVTVSS	polyreactivity (PSR sort gate)	low polyreactivity
QVQLVESGGGLVQAGGSLRKSCAASRGILETNAIGWYRQAPGKERELVAAIDFSAGSTYYADSVKGRFTISRDNAKNTVYLQMNSLKPEDTAVYYCATRLGVLYDYWGHGTQVTVSS	polyreactivity (PSR sort gate)	low polyreactivity
QVQLVESGGGLVQAGGSLRLSCAASGSTFGWYALGWYRQAPGKERELVAAIRSNGGSTYYADSVKGRFTLSRDNAKNTVYLQINSLKPEDTAVYYCAARGSPSKHHWYDYWGQGTQVTVSS	polyreactivity (PSR sort gate)	low polyreactivity
QVQLVESVGGLVQAGGSLRLSCAASGSIYRSYTMGWYRQAPRKEREFVAAITKRGGSTYYADSVKGRFTISRDNAKNTVYLQMISLKPEDTAVYYCAAVAGHYYYFRELGYWGQGTQVTVSS	polyreactivity (PSR sort gate)	high polyreactivity
QVQLVESGGGLVQAGGSLRLSCAASGSTFLQNAMGWYRQAPGKEREFVAAISYTGANTYYADSVKGRFTISRDNAKNTVYLQMNSLKPEDTAVYYCAAYARGVRRYRRYDYWGQGTQVTVSS	polyreactivity (PSR sort gate)	high polyreactivity
QVQLVESGGGLVQAGGSLRLSCAASGSTFRKYAMGWYRQAPGKEREFVAAISSSGGRTYYADSVKGRFTISRDNAKNTVYLQMNSLKPEDTAVYYCNAYFRYSYDYWGQGTQVTVSS	polyreactivity (PSR sort gate)	high polyreactivity
QGQLVESGGGLVQAGGSLRLSCAASGRIVRPNAMGWYRQAPGKETEFVAAISSGGSTYYADSVKGRFTISRDNAKNSVYLQMNSLKPEDTAVYYCAADLSNRPYYRQGYDYWGQGTQVTVSS	polyreactivity (PSR sort gate)	high polyreactivity
QVQLVESGGGLVQAGGSLRLSCAASGIFRQNAMGWYRQAPGKERELVAGISQSGGSTYYADSVKGRFTISRDNAKNTVYLQMNSLKPEDTAVYYCAGVSIWGYDYWGQGTQVTVSS	polyreactivity (PSR sort gate)	low polyreactivity
QVQLVESGRGLVQAGGSLRLSCAASGIIFRLNAMGWYRQAPGKERELVAAILRRGGSTYYADSVKGRFTISRDNAKNTVYFQMNSLKPEDTAVDYCAKDPHGSDFGYWGQGTQVTVSS	polyreactivity (PSR sort gate)	low polyreactivity
QVQLVESGGGLVQAGGSLRLSCAASGSTLATNAMGWYRQAPGKERELVAYADSVKGRFTISRDNAKNTVYLQMNSLKPEDTAVYYCNVEAPGRAQYGYPQGDYWGQGTQVTVSS	polyreactivity (PSR sort gate)	low polyreactivity
QLQLVESGGGLVQAGGSLRLSCAPSGYTFYLYAMGWYRQAPGKARELDAAISNRGGSTYYADSVKGRFTISRDNAKNTVYLQMKSLKPEDTAFYYCAATVGKAGGRYYDRRYYWGQGTQVTVSS	polyreactivity (PSR sort gate)	high polyreactivity
QVQLVESGGGLVQAGGSLRLSCAASGFIFSQYAMGWYRQAPGTERELVAVISKSSGSTYYADSVKGRFTISCDNAKNTVYLQMNSLKPEDTAVYYCNRRYYYRTYDYWGQGTQVTVSS	polyreactivity (PSR sort gate)	high polyreactivity
QVQLVESGGGLVQAGGSLRLTCAASASNFVSYPMGWYRPAHGKERELVAAITSAGTTYYAYSVKGRFTISRDNAKNTVYLQMNTLKPEDTAVYYCNTDASFKRTRVSPETEYGYWGQGTQVTVSS	polyreactivity (PSR sort gate)	low polyreactivity
QVQLVESGGGIVQAGGSLRLSCAASGRIFLTNAKGWYRQAPGKERELVATITASGGTTYYADSVKGRFTISRDNAKNTVYLQMNSLKTEDTAVYYCAKRYYLRGYGRYYYWGQGTQVTVSS	polyreactivity (PSR sort gate)	high polyreactivity
QVQLVESGGGLVQAGGSLRLSCAASGLTFYYYAMGWYRPAPGKERELVARISSGTSTYYADSVKGRFTISRDNAKNTVYLQMNSLKPEDTAVYYCNARRKLGSTHGPWGGLEYWGQGTQVTVSS	polyreactivity (PSR sort gate)	low polyreactivity
